Entry source: ChEMBL document CHEMBL4513216

# Test system: Plasmodium falciparum
# Method Notes: Screen against P. falciparum Asexual Blood Stage (ABS), at 5uM
# Assay type: functional, Dd2
# Condition Notes: tested at 5 uM
About 2,100 (3.2%) of roughly 65,000 compounds showed an effect of 50% or more. The median lay at about -52%. The entries come from a sample that favours strong results as a whole.
Friendly reminder: INHIBITION below -20% is 1.0, at or above is 0.0.

- Cn1nc(C2CCCN(Cc3ccc(F)c(F)c3)C2)c2nccnc21 (centres undefined): 0.0

# check: INHIBITION < -20% for Cc1nccn1CCCn1cncc1-c1ccc2c(c1)CCC(C)N2C (centres undefined)
0.0

Threshold test, INHIBITION < -20%: N#Cc1ccc(NCCCN2C(=O)COc3ccccc32)nc1
1.0

Answer whether the compound Cc1cnccc1-c1cnn(CCNC(=O)c2ccccn2)c1C1CC1 has INHIBITION strictly less than -20%
0.0

Please determine if Cc1c(C(=O)NCC2CCS(=O)(=O)C2)cnn1-c1ccccc1 (centres undefined) is below -20% in terms of INHIBITION.
1.0

API: query returns whether the compound falls strictly under -20% in INHIBITION. Query: N#Cc1cnc(NCCCN2C(=O)COc3ccccc32)c(Cl)c1
1.0

For Cc1ccc(F)c(N2CCCC(Nc3nccn4cnnc34)C2=O)c1 (centres undefined) , is the recorded INHIBITION below the cut-off of -20%?
1.0

Just wondering, is INHIBITION of Cn1cc(N2CC3(CCN(CC4CC4)CC3)OCC2=O)cn1 below -20%?
1.0

Is it true that INHIBITION reported for Cc1nccn1CCCn1cncc1-c1ccc2c(c1)CC(C)N2C (centres undefined) is less than -20%?
0.0

In plain terms, does CC(C)(C)c1nnc(CN2CCCC(Cn3cncn3)C2)o1 (centres undefined) come in under -20% for INHIBITION?
1.0

Bench note: check whether Cc1cc(O)c(OCC(=O)Nc2nc3c(s2)CCCCC3)cn1 shows INHIBITION below -20%
1.0

Consider CC(C)c1nnc(CN2CCCC(Cn3cncn3)C2)o1 (centres undefined) . Does its INHIBITION lie strictly below -20%?
0.0

Please indicate whether the reported INHIBITION of Cc1ccc(CCNC(=O)CC2COCCN2S(=O)(=O)N(C)C)s1 (centres undefined) is strictly below -20%.
1.0

Given O=C1CCCN1CC1CN(CC2CCOCC2)Cc2nccn2C1 (centres undefined) , is recorded INHIBITION strictly lower than -20%?
1.0

Confirm or reject: INHIBITION of C[C@H](O)CNc1cc(-c2ccncc2)ncn1 lies strictly below -20%
1.0

Input CC(C)(C)CC(=O)N1CCC(c2nn(CCN)c3nccnc23)C1 (centres undefined) ; condition: INHIBITION strictly below -20%. Does it hold?
1.0

Does the reported INHIBITION of the following compound sit strictly below -20%? Cc1ccccc1CN1CCC(c2nn(CCN)c3nccnc23)C1 (centres undefined)
0.0

Strictly below -20% in INHIBITION? N#Cc1c(Cl)nsc1NCCCN1C(=O)COc2ccccc21
0.0

###

Reported values of INHIBITION for individual entries
# Tested on: Plasmodium falciparum
# Method Notes: Screen against P. falciparum Asexual Blood Stage (ABS), at 5uM
# Type: functional, Dd2
# Condition Notes: tested at 5 uM
Screen size: about 65,000 compounds; about 2,100 (3.2%) showed an effect of 50% or more. The median lay at about -52%. The entries come from a sample that favours strong results as a whole.
Numeric answer only, unit % assumed.

Known INHIBITION results, listed for orientation:
- Cc1cnc(C(=O)N(CCN(C)C)Cc2ccc(Cl)cc2)cn1: -35.7
- CC(C)(C)n1nnnc1CN(CCc1ccccc1)Cc1ccccc1: 20.2
- Cc1[nH]c2ccc(CNc3cc(C(=O)NC(C)C)ccn3)cc2c1C: -115
- CC(C)(C)n1ncc(NCc2ccccc2)c(Cl)c1=O: -43.4
- Cc1cc(C(=O)N(CCN(C)C)Cc2ccc(Cl)cc2)no1: 53.4

Item O=C(NCC1CC1)C1CCC2(CCN(C(=O)c3cnccn3)CC2)O1 (stereo unspecified) was tested on Plasmodium falciparum; the reported INHIBITION is -40.1

The recorded INHIBITION with Plasmodium falciparum for NC(=O)[C@@H]1Cc2ccccc2CN1S(=O)(=O)N1CCCCC1 was -124

// compound CN(C)S(=O)(=O)N1CCCC(c2nccnc2-c2cccc(Cl)c2)C1 (stereo unspecified) , assay Plasmodium falciparum, INHIBITION value: -85.8

The reported Plasmodium falciparum INHIBITION of COc1cccc(C(=O)N2CCc3nc(C4CCCN4)ncc3C2)c1 (stereo unspecified) is 4.58

Fill in: Plasmodium falciparum INHIBITION for CN(C)CCN(Cc1ccc(Cl)cc1)C(=O)c1ccncc1 = 53.1

Bench note, Plasmodium falciparum: entry CN(C)CCN(Cc1ccc(C(F)(F)F)cc1)C(=O)c1cc[nH]n1 , its INHIBITION = 35.8
